src = paper PMC11187062

assayed-target: T1, hPHD M332A (human, UniProt Q96T88 299-366, M332A)
T1 construct: UHRF1, human, PHD finger, residues 299-366; also called M332A hPHD mutation; source: E. coli, site-directed mutant of hPHD; purification of the hPHD mutants not described separately
T1 sequence (looked up): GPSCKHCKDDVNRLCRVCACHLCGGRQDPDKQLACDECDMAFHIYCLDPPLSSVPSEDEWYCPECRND
experiment: ITC; Microcal PEAQ-ITC, 293 K, 10 mM HEPES pH 7.5, 150 mM NaCl, 0.25 mM TCEP; one-site model; at least three independent titrations
details: both partners purified
observable: Kd

Prompt line: Field request: Kd | item: SRRGVRTLLSVQREKMARLRYMLLGGVRTHERRPTNKE (domain or fragment, Used for SAXS, NMR, CD, ITC and ubiquitination experiments; also called hDPPA3; source: E. coli BL21 (DE3), His-Ub fusion, purified (Ni Sepharose, YUH1 cleavage, HiTrap SP, Superdex 75)) [human DPPA3, residues 81–118 (recombinant)]
Response line: 8.07 µM
